System: K4 kissing-loop RNA reporter;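 also: bound reporter read as fluorescence of individual clusters on recovered sequencing chips by microscopy, with normalized cluster intensities fitted with a binding model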
Test: apparent KD of K4 kissing-loop reporter; higher = weaker reporter binding
Conditions: Eterna round: R107; input ligand: none
Classification field: enter 1 for apparent KD of K4 kissing-loop reporter values not below 200 nM, -1 for values below it.

residue-codes	target-or-system	category
CUCUAGGCGCUCGCGUGAGUGAUGUUUACGCGAGGACCGGUACGGCCGCCACUCGCAGACUGGGUGUAAGCGGAGCUGUAUGCCC [theeternabot_exclusion_KL_Trp_A_12]	K4 kissing-loop RNA reporter	1
GACCCAGAAGCACACCUAAAGUUGACAGAUACCAGCGUCGUUUGGCGCCCUUGGCAGCUGGUCAGUGAUGUUGAUAGCUUCGACU [theeternabot_sameState_KL_Theo_A_24]	K4 kissing-loop RNA reporter	-1
AGGAUGUAGUGAUGUUAUAUAAGAAGUAAACGAGGACCGGUACGGCCGCCACUCGAAGCGGCUACUAGCGCGUUGCGAGGUGCGC [ExTryptoA.Cc]	K4 kissing-loop RNA reporter	1
AGAUGGAAUAGAAGGAGCGGCGCCAGUGAUGUUGGAUGCCGCGGGUGAAUCAUGUCAUAGUGCCAGGUAGGUCGCUAUUUCAGCU [Beinveve]	K4 kissing-loop RNA reporter	-1
UCUGGAGCAUAUGAUACCAGCAGUGAGAGAGAGGAAGUAUAGUGAUGUUAUAUGAGAGAAUGCCCUUGGCAGCGUGUGUAGUGGG [SSTheophylB.M]	K4 kissing-loop RNA reporter	-1
CAUACGCAUGGAGGAUAUGAGAUUUCUCAUGUCAUUUAAUAUUCUCAGUGAUGUUGAGAAUUUGGCUCAGAAGGCCAUGUGUAUG [Ex FMN B 20]	K4 kissing-loop RNA reporter	1
UUUUUGGUUUAGAGUGAUGUUCCUUGUAUUCGAGGACCGGUACGGCCGCCACUCGAAUAGAAAAGAAAAGAAAAGAGUGAUGUUU [BDazzled - #3 SS Tryptophan A]	K4 kissing-loop RNA reporter	1
GUGCAGUGAUGUUGCACGAGGAAAGACGAUACCAGCCGUAAAUAAGGCCCUUGGCAGCGUAAGCUAGCAUAAAGUAUGCUAGUCC [Onarve]	K4 kissing-loop RNA reporter	-1
ACAGUCGGCUGUGAUACCAGUCGUAUUACAACAUGUUGCAGUGAUGUUGCGAGAUAGGAUGACCCUUGGCAGCACUCAGUACGAC [Same State Theophylline B GF10]	K4 kissing-loop RNA reporter	1
GUUACGCAUGGAAGGAGCGCAGGCUCAACAAAUAGCUCAGUGAUGUUGAGCAAAUUAAAACUGCAGGUAGGUCGCCAUGUGUAAC [Ex Arginine B K4 22]	K4 kissing-loop RNA reporter	1
GGGAGUAGUGCGGCCGCCACUGUGAGGGAAGAAGAAUAUAGUGAUGUUAUAUAGGAAGGGAAGAAUAGGACCGGGCAUUAGAUUU [SSTRyptB.aB]	K4 kissing-loop RNA reporter	1
AAGGGCGGGACUUUCUCGCCGGAUAGAGAUACCAGCCCAGCAAUGGGCCCUUGGCAGCUCACUGACCUCAGUGAUGUUGAGGUUC [Quintege]	K4 kissing-loop RNA reporter	1

###

Tested on: MS2 coat protein
Test: apparent KD of MS2 coat protein, switch ON state; designed switch direction (-1 OFF switch, 1 ON switch): -1; higher = weaker reporter binding
Conditions: FMN input: 0 or 200 uM; Eterna round: R93 (includes R88 designs)

residue-codes	apparent KD of MS2 coat protein / nM
AAAAAGGGAGGAUAUACAUGAGGAUCACCCAUGUAAAAAAACGCGGGAGGGAGGGAAGGUAGAAGGCCCAAAAA [Excls3-IV]	20.3
UCCUGACAUGAGGAUCACCCAUGUCAGGAUAUAGUAUGAAAAAAAAAAAAAAAAAAUACUAGAAGGGACAUGGG [Design 12: Super Stable Short Helix 3]	29.2
CUCUUGUGAGGAUAUCAAAGAAAAGAAGAGAAAGAAAAGAAUGAGAAGGCACAUGAGGAUCACCCAUGUAAGAA [EteRNA is fun!]	28.9
AACAGUACAGGAUAUACAUGAGGAUCACCCAUGUGAAAAUUAAGUGGCGUACCACAAAGUAGAAGGGUACUGGA [Moding Maslow revisited (73) 3]	29.4
AAAAUGUGAGGAUAUCCGAAGGCGUCUGAUAGACGAGGCUAGGAGAAGGCACAUGAGGAUCACCCAUGUAAAAA [Banishment 11 - Jieux - Exclusion 4]	78.8
AGGGAGUGAGGAUAUGCGAAAGAAAAAGAAAAAAAAAAAAAGCAGAAGGUACAUGAGGAUCACCCAUGUAAAAA [milkweed 6]	29.8
AGCUAGUCAGGAUAUACAUAAAAAAAAAAAAAAAGUGAUAAACAUGAGGAUCACCCAUGUAGAAGGGACUAGCA [Similarities v.4.2 (34 mutated to A)]	29
ACUUGACAUGAGGAUCACCCAUGUCAGGAUAUAGUAGGACAAAUAAAUAAAAGUUCUACUAGAAGGGAUAUGGA [Design 18: G-U+ 3]	16.7
AACAGUACAGGAUAUACAUGAGGAUCACCCAUGUGAGAAACCAAUGGCGUACCAUAAAGUAGAAGGGUACUGGA [Moding Maslow Revisited (73) 31]	62.3
CUCUUGUAAGGAUAUGACUACAUAAAAAAAAAAAAAUGUAGUCAGAAGGUACAUGAGGAUCACCCAUGUACAAA [Brourd - Exclusion 4 - Sub 1]	24.5
AACAGGUCAGGAUAUGUGGAAAAAAUAAAAAAAAUAAAAACACAGAAGGGACAUGAGGAUCACCCAUGUCAACA [May 24]	30
AGUCAUACAGGAUAUACAUGAGGAUCACCCAUGUAAAUCCUAAAAAGAAAAAAAUCAUGUAGAAGGGUAUGACA [EX3 224: Super Stable 24]	13
AAGAAAGAAGGAUAUACAAGGAAGAAAGAAAAGAAAAGAAAACAUGAGGAUCACCCAUGUAGAAGGUCUUAGAA [EteRNA is fun!]	19.5
AAGAACGUAGGAUAUACAAAAUAAAAGAAAAGAAAGAAAGAACAUGAGGAUCACCCAUGUAGAAGGGCGAAGAA [Sekhemresewadjtawy Sobekhotep III]	49.5
CGUUGGCGAGGAUAUACAUGAGGAUCACCCAUGUGAGAGAAAAAAGUGAGAAAGAAAAGUAGAAGGCGCUGACA [salish99-ex3-11]	45.3
ACAAACCUAGGAUAUACAUGAGGAUCACCCAUGUACAAAGGCGUAGGCGACAAAAGAGGUAGAAGGAGGAAAGG [Disoed]	21.9
GAAAGGGCAGGAUAUGCAGAGAGAGAGAGAGAAAAAAAAAAACAUGAGGAUCACCCAUGUAGAAGGGCCGAAAG [salish99-ex2-05]	42.4
AAUAGUGAAGGAUAUACAGGAGAAGUACGAUAAAAGAAAGAACAUGAGGAUCACCCAUGUAGAAGGUCAGAAGU [JR_Exc002_Sub1228]	33.6
GGUUUGCUAGGAUAUACAUGAGGAUCACCCAUGUGAGAGAAAAAAGUGAGAAAGAAAAGUAGAAGGAGCGGACG [salish99-ex3-122]	68.2
GAAAAGUGAGGAUAUGUCAAAAGUCACAAAAGUGACAAAAGACAGAAGGCACAUGAGGAUCACCCAUGUGAAAG [Mat - Exaclusion 4 - Eli mod - D54]	24.7
AACAGUACAGGAUAUACAUGAGGAUCACCCAUGUGAAGAUUAAGUGGUGUACCACAAAGUAGAAGGGUACUGGA [Ruby 90]	54.9
AAAAAACAUGAGGAUCACCCAUGUGAGGAUAUUGGUAUUCAAGAAACCCUCUUAAUAGCGAGAAGGCGCAAAAA [Brourd 613 Mod 18 - Jieux - Exclusion 1]	22.2
AAAGGACGAGGAUAUACAUGAGGAUCACCCAUGUAAAAAACGUAAUAAAAGAACUUAUGUAGAAGGCGUCCAAA [69%, Moding Meechl, 7]	60.9
AACUGUACAGGAUAUACAUGAGGAUCACCCAUGUGAGAAUUAAGUGGCGAACCACAAAGUAGAAGGGUACAGGA [Mat - Exclusion 3 - JL mod - D16]	50.3
AAGAAGACAGGAUAUACAUGAGGAUCACCCAUGUAAAAGAAAGAGGGAAAAGAGAAAAGUAGAAGGGUCAAGAA [Ptolemy III Euergetes I]	16.8

The reported numbers originate from the supplement of paper PMC9170038.
